Target: CYP3A4 (Homo sapiens (Human), UniProt P08684)
Sequence (P08684 whole entry): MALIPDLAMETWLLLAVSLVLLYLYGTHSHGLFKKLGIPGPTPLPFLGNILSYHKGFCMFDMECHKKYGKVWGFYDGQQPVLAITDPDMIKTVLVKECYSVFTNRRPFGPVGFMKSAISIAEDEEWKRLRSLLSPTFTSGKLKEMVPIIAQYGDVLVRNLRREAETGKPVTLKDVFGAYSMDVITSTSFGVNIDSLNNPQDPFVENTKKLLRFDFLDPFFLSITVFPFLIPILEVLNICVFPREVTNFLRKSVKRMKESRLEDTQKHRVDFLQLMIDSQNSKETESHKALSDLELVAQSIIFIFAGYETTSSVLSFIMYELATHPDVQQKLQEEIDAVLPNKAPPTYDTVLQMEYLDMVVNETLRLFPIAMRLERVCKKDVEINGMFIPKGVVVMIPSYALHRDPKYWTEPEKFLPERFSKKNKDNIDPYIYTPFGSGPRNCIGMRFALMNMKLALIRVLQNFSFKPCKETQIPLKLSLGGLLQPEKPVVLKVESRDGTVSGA
Test: CYP 450 enzyme inhibition test (mixed human liver microsomes, LC-MS/MS)
Details: read-out: CYP3A4-T IC50; mixed human liver microsomes, NADPH, CYP3A4-T probe substrate
Where a name gives a salt, the structure may show the parent alone.

| Compound | IC50 |
| --- | --- |
| CS(=O)(=O)N1CCN(C(=O)c2cc(CN[C@@H]3C[C@H]3c3ccc(F)cc3)nc(-c3ccc(N4CCOCC4)cc3)n2)CC1 [Example 227] | 14.1 µM |
| COc1ccc(-c2c(O)cc(N3CCC(N)CC3)nc2-c2ccc(C#N)c(F)c2)cc1O [Example 23] | 54.2 µM |
| COc1ccc(-c2cnc(N3CCC(C)(N)CC3)c(C#N)c2-c2ccc(C#N)c(F)c2)cc1O [Example 80, hydrochloride] | > 10 µM |
| N#Cc1ccc(-c2c(-c3ccc(C(F)(F)F)c(O)c3)cnc(N3CCC(N)CC3)c2C#N)cc1F [Example 70, hydrochloride] | 8.71 µM |
| COc1ccc(-c2cnc(N3CC4CC3CC4N)c(C#N)c2-c2ccc(C#N)c(F)c2)cc1O (stereo not shown) [Example 73] | 7.59 µM |
| CNC1CCN(c2ncc(-c3ccc(OC)c(O)c3)c(-c3ccc(C#N)c(F)c3)c2C#N)CC1 [Example 79, hydrochloride] | > 10 µM |
| Cc1noc2cc(-c3c(-c4ccc(C#N)c(F)c4)nc(N4CCC(N)CC4)n4ccnc34)c(F)cc12 [Example 125] | 49.9 µM |

Data provenance: patent US20240216357A1
